IC50 listing for selected molecules.
- tested.system: mutant Bcr-Abl-T3151 kinase (Homo sapiens, UniProt P00519, T315I)
- assay.comment: Bcr-Abl mutant T315I biochemical assay (MBP phosphorylation, 33P-ATP)
- reported.conditions: 50 μM ATP

molecule	IC50
CNC(=O)c1cc(Oc2ccc(NC(=O)Nc3cc(C(C)(C)C)nn3-c3cccc(COC(=O)[C@H](NC(=O)OCC4c5ccccc5-c5ccccc54)C(C)C)c3)c(F)c2)ccn1 [Example 8]	< 20000 nM
CNC(=O)c1cc(Oc2ccc(NC(=O)Nc3cc(C(C)(C)C)nn3-c3cccc(COP(=O)(OC(C)(C)C)OC(C)(C)C)c3)c(F)c2)ccn1 [Example 12]	< 20000 nM
CNC(=O)c1cc(Oc2ccc(NC(=O)Nc3cc(C(C)(C)C)nn3-c3cccc(COC(=O)[C@@H](N)C(C)C)c3)c(F)c2)ccn1 [Example 10]	< 1000 nM
CNC(=O)c1cc(Oc2ccc(NC(=O)Nc3cc(C(C)(C)C)nn3-c3cccc(COC(=O)COC)c3)c(F)c2)ccn1 [Example 15]	< 1000 nM
CNC(=O)c1cc(Oc2ccc(NC(=O)Nc3cc(C(C)(C)C)nn3-c3cccc(COC(C)=O)c3)c(F)c2)ccn1 [Example 11]	< 1000 nM
CNC(=O)c1cc(Oc2ccc(NC(=O)Nc3cc(C(C)(C)C)nn3-c3cccc(COC(=O)CC(C)C)c3)c(F)c2)ccn1 [Example 17]	< 20000 nM

Response field IC50 (mutant Bcr-Abl-T3151 kinase (Homo sapiens, UniProt P00519, T315I)) for item CNC(=O)c1cc(Oc2ccc(NC(=O)Nc3cc(C(C)(C)C)nn3-c3cccc(COC(=O)[C@H](N)C(C)C)c3)c(F)c2)ccn1 [Example 9] : < 1000 nM

Hey, mutant Bcr-Abl-T3151 kinase (Homo sapiens, UniProt P00519, T315I) data for CCC(=O)OCc1cccc(-n2nc(C(C)(C)C)cc2NC(=O)Nc2ccc(Oc3ccnc(C(=O)NC)c3)cc2F)c1 [Example 16] : IC50 came out at < 1000 nM

Reported IC50 (mutant Bcr-Abl-T3151 kinase (Homo sapiens, UniProt P00519, T315I)) for entry CNC(=O)c1cc(Oc2ccc(NC(=O)Nc3cc(C(C)(C)C)nn3-c3cccc(COC(=O)CCC(=O)O)c3)c(F)c2)ccn1 [Example 14] is < 1000 nM

====

- tested.system: Flk-1 (murine VEGFR-2) kinase domain (Mus musculus)
- Sequence (P35918 832-1160 limits assumed): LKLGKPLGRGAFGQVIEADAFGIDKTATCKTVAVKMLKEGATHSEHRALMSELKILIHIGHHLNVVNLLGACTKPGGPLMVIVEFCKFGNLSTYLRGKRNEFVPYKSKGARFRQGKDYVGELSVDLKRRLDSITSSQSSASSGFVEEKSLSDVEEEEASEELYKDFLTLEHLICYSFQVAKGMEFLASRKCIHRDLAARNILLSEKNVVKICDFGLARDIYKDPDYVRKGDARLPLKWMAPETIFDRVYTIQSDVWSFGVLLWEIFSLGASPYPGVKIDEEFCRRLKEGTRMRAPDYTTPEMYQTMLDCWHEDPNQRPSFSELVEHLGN
assay.endpoint: IC50

Lab entry: Flk-1 (murine VEGFR-2) kinase domain (Mus musculus) assay, compound CNC(=O)c1cc(Oc2ccc(NC(=O)Nc3cc(C(C)(C)C)nn3-c3cccc(COC(=O)CCC(=O)O)c3)c(F)c2)ccn1 [Example 14] , IC50 = < 1000 nM

====

- tested.system: human recombinant c-Met intracellular kinase domain (Homo sapiens, UniProt P08581)
- Construct: C-terminal HIS-tagged intracellular kinase domain (956 to 1390 amino acids) human recombinant c-Met; His tag (C)
- Sequence (P08581 956-1390): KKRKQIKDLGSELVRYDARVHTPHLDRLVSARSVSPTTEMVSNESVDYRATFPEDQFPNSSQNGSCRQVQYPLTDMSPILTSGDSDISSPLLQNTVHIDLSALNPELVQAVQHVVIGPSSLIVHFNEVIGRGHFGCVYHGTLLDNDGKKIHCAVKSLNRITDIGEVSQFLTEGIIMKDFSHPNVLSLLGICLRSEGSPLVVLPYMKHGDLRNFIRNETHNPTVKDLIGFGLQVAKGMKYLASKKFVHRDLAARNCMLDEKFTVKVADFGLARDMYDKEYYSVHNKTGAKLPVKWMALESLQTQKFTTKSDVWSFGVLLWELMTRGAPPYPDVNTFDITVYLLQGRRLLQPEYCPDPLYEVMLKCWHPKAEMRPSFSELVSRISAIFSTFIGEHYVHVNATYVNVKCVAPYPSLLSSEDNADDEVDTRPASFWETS
- assay.comment: c-Met biochemical assay, ELISA format
- reported.conditions: 0.2 μM ATP
pIC50: −log10 of the molar value.
Here, each record is paired with measured pIC50 data.

                         compound_structure                             tested_system  value_observed
0  CNC(=O)c1cc(Oc2ccc(NC(=O)Nc3cc(C(C)(C)C)nn3-c3cccc(COC(=O)[C@@H](N)C(C)C)c3)c(F)c2)ccn1  human recombinant c-Met intracellular kinase domain (Homo sapiens, UniProt P08581)          > 6.00
1  CNC(=O)c1cc(Oc2ccc(NC(=O)Nc3cc(C(C)(C)C)nn3-c3cccc(COC(=O)COC)c3)c(F)c2)ccn1  human recombinant c-Met intracellular kinase domain (Homo sapiens, UniProt P08581)          > 6.00
2  CNC(=O)c1cc(Oc2ccc(NC(=O)Nc3cc(C(C)(C)C)nn3-c3cccc(COP(=O)(OC(C)(C)C)OC(C)(C)C)c3)c(F)c2)ccn1  human recombinant c-Met intracellular kinase domain (Homo sapiens, UniProt P08581)          > 4.70
3  CNC(=O)c1cc(Oc2ccc(NC(=O)Nc3cc(C(C)(C)C)nn3-c3cccc(COC(C)=O)c3)c(F)c2)ccn1  human recombinant c-Met intracellular kinase domain (Homo sapiens, UniProt P08581)          > 6.00
4  CNC(=O)c1cc(Oc2ccc(NC(=O)Nc3cc(C(C)(C)C)nn3-c3cccc(COC(=O)CCC(=O)O)c3)c(F)c2)ccn1  human recombinant c-Met intracellular kinase domain (Homo sapiens, UniProt P08581)          > 6.00

In plain terms, CCC(=O)OCc1cccc(-n2nc(C(C)(C)C)cc2NC(=O)Nc2ccc(Oc3ccnc(C(=O)NC)c3)cc2F)c1 has a documented pIC50 of > 6.00

The recorded pIC50 for CNC(=O)c1cc(Oc2ccc(NC(=O)Nc3cc(C(C)(C)C)nn3-c3cccc(COC(=O)CC(C)C)c3)c(F)c2)ccn1 is > 4.70

Record CNC(=O)c1cc(Oc2ccc(NC(=O)Nc3cc(C(C)(C)C)nn3-c3cccc(COC(=O)[C@H](N)C(C)C)c3)c(F)c2)ccn1 , field pIC50: > 6.00

The recorded pIC50 for entry CNC(=O)c1cc(Oc2ccc(NC(=O)Nc3cc(C(C)(C)C)nn3-c3cccc(COC(=O)[C@H](NC(=O)OCC4c5ccccc5-c5ccccc54)C(C)C)c3)c(F)c2)ccn1 equals > 4.70
